biological target: Estrogen receptor (Homo sapiens) (UniProt P03372); experiment: ATG_ERa_TRANS: Attagene TRANS-FACTORIAL HepG2 Assay for human Estrogen Receptor alpha (ERa) (AID 2282970); details: HepG2 Attagene TRANS ERa GAL4 reporter, mRNA
Sequence (P03372 whole entry, looked up, the tested form may be a part): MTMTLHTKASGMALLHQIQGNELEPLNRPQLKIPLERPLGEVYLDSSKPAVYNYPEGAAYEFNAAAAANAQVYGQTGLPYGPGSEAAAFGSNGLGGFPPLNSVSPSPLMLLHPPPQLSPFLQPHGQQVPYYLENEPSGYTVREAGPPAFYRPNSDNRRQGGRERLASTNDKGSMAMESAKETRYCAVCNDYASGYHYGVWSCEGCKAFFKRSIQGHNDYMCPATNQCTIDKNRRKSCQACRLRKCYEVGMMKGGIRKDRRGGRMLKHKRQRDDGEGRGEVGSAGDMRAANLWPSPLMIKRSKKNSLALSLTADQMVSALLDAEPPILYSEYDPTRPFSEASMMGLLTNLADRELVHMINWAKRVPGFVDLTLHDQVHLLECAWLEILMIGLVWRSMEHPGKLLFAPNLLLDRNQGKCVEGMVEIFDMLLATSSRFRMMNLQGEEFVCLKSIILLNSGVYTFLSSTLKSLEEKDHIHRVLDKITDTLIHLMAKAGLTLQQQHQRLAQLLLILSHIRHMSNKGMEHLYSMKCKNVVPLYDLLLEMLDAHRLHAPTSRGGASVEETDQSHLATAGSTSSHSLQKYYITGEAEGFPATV
Results filed as inconclusive are left out. Calls of active or inactive are those of the source. How the source made its calls: active means hit-call score of the fitted dose curve at least 0.9, where 1 is the maximum; inconclusive means response in the unintended direction; inactive means score below 0.9.
Outcomes: Yes (active), No (inactive)

COMPOUND: Cc1cc(Cl)ccc1OCC(=O)O
ASSIGNED_CATEGORY: No

COMPOUND: CCNc1nc(Cl)nc(NC(C)C)n1
ASSIGNED_CATEGORY: No

COMPOUND: CCCCNC(=O)n1c(NC(=O)OC)nc2ccccc21
ASSIGNED_CATEGORY: No

COMPOUND: CCCCC(CC)COC(=O)c1ccccc1C(=O)OCC(CC)CCCC (configuration not stated)
ASSIGNED_CATEGORY: No

COMPOUND: COC(=O)c1ccccc1C(=O)OC
ASSIGNED_CATEGORY: No

COMPOUND: O=C(Nc1ccccc1)Nc1ccnc(Cl)c1
ASSIGNED_CATEGORY: No

COMPOUND: C=CCC1=C(C)[C@@H](OC(=O)[C@@H]2[C@@H](C=C(C)C)C2(C)C)CC1=O
ASSIGNED_CATEGORY: No

COMPOUND: CCON=C(CC)C1=C(O)CC(c2c(C)cc(C)cc2C)CC1=O (configuration not stated)
ASSIGNED_CATEGORY: No

COMPOUND: Fc1ccc(Oc2ccnc3cc(Cl)cc(Cl)c23)cc1
ASSIGNED_CATEGORY: No

COMPOUND: CCOc1cc(Oc2ccc(C(F)(F)F)cc2Cl)ccc1[N+](=O)[O-]
ASSIGNED_CATEGORY: No

COMPOUND: COc1nc(C)nc(NC(=O)NS(=O)(=O)c2ccccc2Cl)n1
ASSIGNED_CATEGORY: No

COMPOUND: Cc1c(F)c(F)c(COC(=O)C2C(/C=C(\Cl)C(F)(F)F)C2(C)C)c(F)c1F (configuration not stated)
ASSIGNED_CATEGORY: Yes

---

experiment: ATG_RORE_CIS: Attagene CIS-FACTORIAL HepG2 Assay for human RAR-related Orphan Receptor Element (RORE) (AID 2282959); details: HepG2 Attagene cis-factorial RORE reporter, mRNA; actives raise or lower the signal
The source made the active and inactive calls. How the source made its calls: active means hit-call score of the fitted dose curve at least 0.9, where 1 is the maximum; inactive means score below 0.9.
Outcomes: yes (1) = active, no (0) = inactive

COMPOUND: CC(C)Oc1cc(-n2nc(C(C)(C)C)oc2=O)c(Cl)cc1Cl
ASSIGNED_CATEGORY: no (0)
//
COMPOUND: COc1nc(C)nc(NC(=O)NS(=O)(=O)c2ccccc2CCC(F)(F)F)n1
ASSIGNED_CATEGORY: no (0)
//
COMPOUND: O=C(O)COc1nc(Cl)c(Cl)cc1Cl
ASSIGNED_CATEGORY: no (0)
//
COMPOUND: CNC(=O)ON=CC(C)(C)SC
ASSIGNED_CATEGORY: no (0)
//
COMPOUND: N#Cc1cc(Br)c(O)c(Br)c1
ASSIGNED_CATEGORY: yes (1)
//
COMPOUND: CN(C)C(=S)SSC(=S)N(C)C
ASSIGNED_CATEGORY: no (0)
//
COMPOUND: CC1=C(C(=O)Nc2ccccc2)SCCO1
ASSIGNED_CATEGORY: no (0)
//
COMPOUND: CCc1nn(C)c(C(=O)NCc2ccc(C(C)(C)C)cc2)c1Cl
ASSIGNED_CATEGORY: no (0)
//
COMPOUND: COC(=O)C(C)Oc1ccc(Oc2ccc(Cl)cc2Cl)cc1 (stereo not drawn)
ASSIGNED_CATEGORY: no (0)
//
COMPOUND: CCOP(=S)(OCC)SCn1c(=O)oc2cc(Cl)ccc21
ASSIGNED_CATEGORY: no (0)
//
COMPOUND: COc1cnc(OC)n2nc(NS(=O)(=O)c3c(OCC(F)F)cccc3C(F)(F)F)nc12
ASSIGNED_CATEGORY: no (0)
//
COMPOUND: CON(C)C(=O)Nc1ccc(Cl)c(Cl)c1
ASSIGNED_CATEGORY: no (0)
//
COMPOUND: CS/C(C)=N/OC(=O)N(C)SN(C)C(=O)O/N=C(\C)SC
ASSIGNED_CATEGORY: no (0)

---

read-out: Interleukin-8 (IL8), CXCL8 (gene 3576); assay: BSK_SAg_IL8: BioMAP Diversity Plus: SAg Assay for Interleukin-8 (IL8) Biomarker Activity (AID 2283094); details: primary human HUVEC with PBMC; actives raise or lower the signal
Calls of active or inactive are those of the source. The calls were made as follows: active = hit-call score of the fitted dose curve at least 0.9, where 1 is the maximum; inactive = score below 0.9.
Outcomes: t for active, f for inactive

MOLECULE: CO/C=C(/C(=O)OC)c1ccccc1Oc1cc(Oc2ccccc2C#N)ncn1
ASSIGNED_CATEGORY: t
//
MOLECULE: COC(=O)N(OC)c1ccccc1COc1ccn(-c2ccc(Cl)cc2)n1
ASSIGNED_CATEGORY: t
//
MOLECULE: CCNc1nc(Cl)nc(NC(C)C)n1
ASSIGNED_CATEGORY: f
//
MOLECULE: Cc1c(F)c(F)c(COC(=O)C2C(/C=C(\Cl)C(F)(F)F)C2(C)C)c(F)c1F (configuration not stated)
ASSIGNED_CATEGORY: f
//
MOLECULE: C=CC1(C)OC(=O)N(c2cc(Cl)cc(Cl)c2)C1=O (configuration not stated)
ASSIGNED_CATEGORY: f
//
MOLECULE: CC(Oc1ccc(Cl)cc1Cl)C(=O)O (configuration not stated)
ASSIGNED_CATEGORY: f
//
MOLECULE: CCCCOC(=O)c1ccccc1C(=O)OCCCC
ASSIGNED_CATEGORY: f
//
MOLECULE: CCc1nn(C)c(C(=O)NCc2ccc(C(C)(C)C)cc2)c1Cl
ASSIGNED_CATEGORY: t
//
MOLECULE: CS/C(C)=N/OC(=O)N(C)SN(C)C(=O)O/N=C(\C)SC
ASSIGNED_CATEGORY: t
//
MOLECULE: CON(C)C(=O)Nc1ccc(Cl)c(Cl)c1
ASSIGNED_CATEGORY: f
//
MOLECULE: N#CC(CCc1ccc(Cl)cc1)(Cn1cncn1)c1ccccc1 (configuration not stated)
ASSIGNED_CATEGORY: f
//
MOLECULE: CCON=C(CC)C1=C(O)CC(c2c(C)cc(C)cc2C)CC1=O (configuration not stated)
ASSIGNED_CATEGORY: f

---

read-out: urokinase plasminogen activator (uPA), PLAU (gene 5328); experiment: BSK_BE3C_uPA: BioMAP Diversity Plus: BE3C Assay for urokinase plasminogen activator (uPA) Biomarker Activity (AID 2283038); conditions: primary human bronchial epithelial cells; actives raise or lower the signal
Active and inactive are the calls of the source. The calls were made as follows: active = hit-call score of the fitted dose curve at least 0.9, where 1 is the maximum; inactive = score below 0.9.
Outcomes: true = active, false = inactive

COMPOUND: COc1nc(NC(C)C)nc(NC(C)C)n1
ASSIGNED_CATEGORY: false

COMPOUND: COP(=S)(OC)Oc1nc(Cl)c(Cl)cc1Cl
ASSIGNED_CATEGORY: false

COMPOUND: CCCC1COC(Cn2cncn2)(c2ccc(Cl)cc2Cl)O1 (stereo not given)
ASSIGNED_CATEGORY: false

COMPOUND: C=CCC1=C(C)[C@@H](OC(=O)[C@@H]2[C@@H](C=C(C)C)C2(C)C)CC1=O
ASSIGNED_CATEGORY: true

COMPOUND: CCOC(=O)C(Cl)Cc1cc(-n2nc(C)n(C(F)F)c2=O)c(F)cc1Cl (stereo not given)
ASSIGNED_CATEGORY: false

COMPOUND: CON(C)C(=O)Nc1ccc(Cl)c(Cl)c1
ASSIGNED_CATEGORY: false

COMPOUND: COC(=O)N(OC)c1ccccc1COc1ccn(-c2ccc(Cl)cc2)n1
ASSIGNED_CATEGORY: false

COMPOUND: CCOc1cc(Oc2ccc(C(F)(F)F)cc2Cl)ccc1[N+](=O)[O-]
ASSIGNED_CATEGORY: false

COMPOUND: CCOP(=S)(OCC)SCn1c(=O)oc2cc(Cl)ccc21
ASSIGNED_CATEGORY: false

COMPOUND: OC(c1ccc(Cl)cc1)(c1cncnc1)c1ccccc1Cl (stereo not given)
ASSIGNED_CATEGORY: false

---

experiment: CCTE_Shafer_MEA_dev_inter_network_spike_interval_mean: CCTE's Neural Network Formation Assay for Mean Inter-network Spike Interval, Shafer Lab (AID 2284047)
The source made the active and inactive calls. Rule for the calls: active = hit-call score of the fitted dose curve at least 0.9, where 1 is the maximum; inactive = score below 0.9.
Outcomes: Yes = active, No = inactive

MOLECULE: CCCCNC(=O)n1c(NC(=O)OC)nc2ccccc21
ASSIGNED_CATEGORY: No

MOLECULE: C=CCC1=C(C)[C@@H](OC(=O)[C@@H]2[C@@H](C=C(C)C)C2(C)C)CC1=O
ASSIGNED_CATEGORY: No

MOLECULE: CCNc1nc(Cl)nc(NC(C)C)n1
ASSIGNED_CATEGORY: No

MOLECULE: Cc1c(F)c(F)c(COC(=O)C2C(/C=C(\Cl)C(F)(F)F)C2(C)C)c(F)c1F (stereo unspecified)
ASSIGNED_CATEGORY: No

MOLECULE: CN(C)C(=S)SSC(=S)N(C)C
ASSIGNED_CATEGORY: Yes

MOLECULE: CCCCC(CC)COC(=O)c1ccccc1C(=O)OCC(CC)CCCC (stereo unspecified)
ASSIGNED_CATEGORY: No
